Source listed as patent US20020132832A1.

tested on: isolated rat cavernosal tissue; assay: Isolated rat cavernosal strips, relaxation of agonist-induced contraction; type: cell-based; details: Rattus norvegicus, read-out: IC50, relaxation of PE-induced tone
pIC50: −log10 of the molar value.
assay.metric: pIC50

> print(dat)
                                   compound  reported.result
1  CC(N)[C@H]1CC[C@H](C(=O)Nc2ccncc2)CC1 (single isomer, unassigned; (+)) [Y-27632, monohydrate]             6.00
